Reference source: patent EP4725957A1

# Test system: Klebsiella pneumoniae KPN+19-15
# Type: cell-based
# conditions: KPN+19-15
Bridge positions count the residues as written; N and C are the ends. Square brackets hold non-standard residues; d marks the D form. Peptide text beside a SMILES is read from it. * marks the point of attachment. Heptanoyl = CCCCCCC(=O)*; Octanoyl = CCCCCCCC(=O)*; Orn = NCCC[C@H](N)C(=O)O; Dab = NCC[C@H](N)C(=O)O
measure-name: MIC (µg/mL)
Give just the numeric value; µg/mL need not be written.

Problem: Give a short answer stating reported MIC for CCCCCCC(=O)N[C@@H](CCN)C(=O)N[C@H](C(=O)N[C@@H](CCCN)C(=O)N[C@H]1CCNC(=O)[C@H]([C@@H](C)O)NC(=O)[C@H](CCN)NC(=O)[C@H](CCN)NC(=O)[C@H]([C@@H](C)O)NC(=O)[C@@H](Cc2ccccc2)NC(=O)[C@H](CCN)NC1=O)[C@@H](C)O [Compound 29] (Heptanoyl-[Dab]T[Orn][Dab][Dab][dF]T[Dab][Dab]T; lactam 4-C) .
Solution: 0.03

Problem: Give a short answer stating reported MIC for CCCCCCCC(=O)N[C@@H](CCN)C(=O)N[C@H](C(=O)N[C@H](CO)C(=O)N[C@H]1CCNC(=O)[C@H]([C@@H](C)O)NC(=O)[C@H](CCCN)NC(=O)[C@H](CCN)NC(=O)[C@H]([C@@H](C)O)NC(=O)[C@@H](Cc2ccccc2)NC(=O)[C@H](CCN)NC1=O)[C@@H](C)O [Compound 88] (Octanoyl-[Dab]T[dS][Dab][Dab][dF]T[Dab][Orn]T; lactam 4-C) .
Solution: 0.5

---

Consider the following compounds; for each one, report its MIC.
# Tested on: Escherichia coli ATCC BAA-2523
# Format: cell-based
# conditions: ATCC BAA-2523
Bridge positions count the residues as written; N and C are the ends. Square brackets hold non-standard residues; d marks the D form. Peptide text beside a SMILES is read from it. * marks the point of attachment. Heptanoyl(6-Me) = CC(C)CCCCC(=O)*; Nonanoyl = CCCCCCCCC(=O)*; dDab = NCC[C@@H](N)C(=O)O; Octanoyl = CCCCCCCC(=O)*; Orn = NCCC[C@H](N)C(=O)O; Dab = NCC[C@H](N)C(=O)O; Dap = NC[C@H](N)C(=O)O
Give just the numeric value; µg/mL need not be written.

Problem: Give a short answer stating reported MIC for CC(C)CCCCC(=O)N[C@@H](CCN)C(=O)N[C@H](C(=O)N[C@@H](CCCN)C(=O)N[C@H]1CCNC(=O)[C@H]([C@@H](C)O)NC(=O)[C@H](CCN)NC(=O)[C@H](CCN)NC(=O)[C@H](CC(C)C)NC(=O)[C@@H](Cc2ccccc2)NC(=O)[C@H](CCN)NC1=O)[C@@H](C)O [Compound 47] ({Heptanoyl(6-Me)}-[Dab]T[Orn][Dab][Dab][dF]L[Dab][Dab]T; lactam 4-C) .
Solution: 0.03

Problem: Give a short answer stating reported MIC for CCCCCCCCC(=O)N[C@@H](CCN)C(=O)N[C@H](C(=O)N[C@@H](CN)C(=O)N[C@H]1CCNC(=O)[C@H]([C@@H](C)O)NC(=O)[C@H](CCN)NC(=O)[C@H](CCN)NC(=O)[C@H]([C@@H](C)O)NC(=O)[C@@H](Cc2ccccc2)NC(=O)[C@H](CCN)NC1=O)[C@@H](C)O [Compound 10] (Nonanoyl-[Dab]T[Dap][Dab][Dab][dF]T[Dab][Dab]T; lactam 4-C) .
Solution: 0.06

Problem: Give a short answer stating reported MIC for CCCCCCCC(=O)N[C@@H](CN)C(=O)N[C@H](C(=O)N[C@H](CCN)C(=O)N[C@H]1CCNC(=O)[C@H]([C@@H](C)O)NC(=O)[C@H](CCN)NC(=O)[C@H](CCN)NC(=O)[C@H](CC(C)C)NC(=O)[C@@H](Cc2ccccc2)NC(=O)[C@H](CCN)NC1=O)[C@@H](C)O [Compound 93] (Octanoyl-[Dap]T[dDab][Dab][Dab][dF]L[Dab][Dab]T; lactam 4-C) .
Solution: 0.03

Problem: Give a short answer stating reported MIC for CCCCCCCCC(=O)N[C@@H](CCN)C(=O)N[C@H](C(=O)N[C@H](CO)C(=O)N[C@H]1CCNC(=O)[C@H]([C@@H](C)O)NC(=O)[C@H](CCCN)NC(=O)[C@H](CCN)NC(=O)[C@H]([C@@H](C)O)NC(=O)[C@@H](Cc2ccccc2)NC(=O)[C@H](CCN)NC1=O)[C@@H](C)O [Compound 90] (Nonanoyl-[Dab]T[dS][Dab][Dab][dF]T[Dab][Orn]T; lactam 4-C) .
Solution: 0.25

---

# Test system: Pseudomonas aeruginosa ATCC 27853
# Assay type: cell-based
# conditions: ATCC 27853
Numbered stars: 1 amine (or outer) side, 2 acyl side, 3 side chain; on linkers, the order of the positions; unused ones are H or OH. Bridge positions count the residues as written; N and C are the ends. Square brackets hold non-standard residues; d marks the D form. Peptide text beside a SMILES is read from it. * marks the point of attachment. X3 = O=C([C@@H](Cc1ccc(CS(=O)(=O)O)cc1)N[*:1])[*:2]; Dab(CH2SO3H) = N[C@@H](CCNCS(=O)(=O)O)C(=O)O; Heptanoyl(6-Me) = CC(C)CCCCC(=O)*; Heptanoyl = CCCCCCC(=O)*; Dab = NCC[C@H](N)C(=O)O; Dap = NC[C@H](N)C(=O)O
measure-name: MIC (mg/L)
Give just the numeric value; mg/L need not be written.

Problem: State the measured MIC (Pseudomonas aeruginosa ATCC 27853) of CC(C)CCCCC(=O)N[C@@H](CCN)C(=O)N[C@H](C(=O)N[C@H](CO)C(=O)N[C@H]1CCNC(=O)[C@H]([C@@H](C)O)NC(=O)[C@H](CCN)NC(=O)[C@H](CCN)NC(=O)[C@H]([C@@H](C)O)NC(=O)[C@@H](Cc2ccccc2)NC(=O)[C@H](CCNCS(=O)(=O)O)NC1=O)[C@@H](C)O [Compound 109] ({Heptanoyl(6-Me)}-[Dab]T[dS][Dab][Dab(CH2SO3H)][dF]T[Dab][Dab]T; lactam 4-C)
Solution: 0.25

Problem: State the measured MIC (Pseudomonas aeruginosa ATCC 27853) of CC(C)CCCCC(=O)N[C@@H](CCN)C(=O)N[C@H](C(=O)N[C@@H](CN)C(=O)N[C@H]1CCNC(=O)[C@H]([C@@H](C)O)NC(=O)[C@H](CCN)NC(=O)[C@H](CCN)NC(=O)[C@H]([C@@H](C)O)NC(=O)[C@@H](Cc2ccc(CS(=O)(=O)O)cc2)NC(=O)[C@H](CCN)NC1=O)[C@@H](C)O [Compound 116] ({Heptanoyl(6-Me)}-[Dab]T[Dap][Dab][Dab][X3]T[Dab][Dab]T; lactam 4-C)
Solution: 0.25

Problem: State the measured MIC (Pseudomonas aeruginosa ATCC 27853) of CCCCCCC(=O)N[C@@H](CCN)C(=O)N[C@H](C(=O)N[C@@H](CCN)C(=O)N[C@H]1CCNC(=O)[C@H]([C@@H](C)O)NC(=O)[C@H](CCN)NC(=O)[C@H](CCN)NC(=O)[C@H]([C@@H](C)O)NC(=O)[C@@H](Cc2ccccc2)NC(=O)[C@H](CCN)NC1=O)[C@@H](C)O [Compound 19] (Heptanoyl-[Dab]T[Dab][Dab][Dab][dF]T[Dab][Dab]T; lactam 4-C)
Solution: 2

---

# System: Acinetobacter baumannii ABA19-1
# Type: cell-based
# conditions: ABA19-1
Bridge positions count the residues as written; N and C are the ends. Square brackets hold non-standard residues; d marks the D form. Peptide text beside a SMILES is read from it. * marks the point of attachment. Nonanoyl = CCCCCCCCC(=O)*; Octanoyl = CCCCCCCC(=O)*; Orn = NCCC[C@H](N)C(=O)O; Dab = NCC[C@H](N)C(=O)O; Dap = NC[C@H](N)C(=O)O
Consider the following compounds; for each one, report its MIC.
Give just the numeric value; µg/mL need not be written.

Problem: Give a short answer stating reported MIC for CCCCCCCCC(=O)N[C@@H](CCN)C(=O)N[C@H](C(=O)N[C@@H](CN)C(=O)N[C@H]1CCNC(=O)[C@H]([C@@H](C)O)NC(=O)[C@H](CCN)NC(=O)[C@H](CCN)NC(=O)[C@H](CC(C)C)NC(=O)[C@@H](Cc2ccccc2)NC(=O)[C@H](CCN)NC1=O)[C@@H](C)O [Compound 40] (Nonanoyl-[Dab]T[Dap][Dab][Dab][dF]L[Dab][Dab]T; lactam 4-C) .
Solution: 0.06

Problem: Give a short answer stating reported MIC for CCCCCCCC(=O)N[C@@H](CCN)C(=O)N[C@H](C(=O)N[C@H](CO)C(=O)N[C@H]1CCNC(=O)[C@H]([C@@H](C)O)NC(=O)[C@H](CCN)NC(=O)[C@H](CCN)NC(=O)[C@H]([C@@H](C)O)NC(=O)[C@@H](Cc2ccccc2)NC(=O)[C@H](CCCN)NC1=O)[C@@H](C)O [Compound 68] (Octanoyl-[Dab]T[dS][Dab][Orn][dF]T[Dab][Dab]T; lactam 4-C) .
Solution: 0.25
